- target_system: human GPR40 (Homo sapiens, UniProt O14842)
- Sequence (O14842 whole entry): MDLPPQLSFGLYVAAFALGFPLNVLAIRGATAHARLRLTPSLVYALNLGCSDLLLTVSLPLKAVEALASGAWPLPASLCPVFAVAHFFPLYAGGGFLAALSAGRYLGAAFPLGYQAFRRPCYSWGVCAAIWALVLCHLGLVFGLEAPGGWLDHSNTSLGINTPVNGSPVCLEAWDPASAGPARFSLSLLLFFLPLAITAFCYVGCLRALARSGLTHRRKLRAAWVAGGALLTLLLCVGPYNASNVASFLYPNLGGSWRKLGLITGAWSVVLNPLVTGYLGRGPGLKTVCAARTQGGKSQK
- assay: FDSS-based intracellular calcium assay (Human GRP40 in vitro assay)
- Type: cell-based
- Parameters: 3xFLAG; expressed in transfected cells
- test_context: cells expressing GPR40, intracellular Ca2+ response, FDSS reader; read-out: hGPR40 EC50
Counter-ions that a name gives are not always drawn.
measured_attribute: EC50 (nM)
Respond with the bare value in nM.

>>> experimental_value("COc1cc(N2CCC(Cc3ccc(N4C[C@H](OC)C[C@@H]4CC(=O)O)cc3)CC2)c(Cl)cn1")
952
>>> experimental_value("COc1ccc(F)c(N2CCC(Oc3ccc(N4C[C@H](OC)C[C@@H]4CC(=O)O)cc3F)CC2)c1 [Example 15, HCl]")
290
>>> experimental_value("CCOc1ccc(F)c(N2CCC(Oc3ccc(N4C[C@H](Oc5cccc(C#N)c5)C[C@@H]4CC(=O)O)cc3)CC2)c1")
310
>>> experimental_value("COc1cc(N2CC[C@@H](Oc3ccc(N4C[C@H](OC)[C@@H](C)[C@@H]4CC(=O)O)cn3)[C@H](C)C2)c(C2=CCCC2(C)C)cn1 [Example 153, HCl]")
200
>>> experimental_value("COc1cc(N2CCC(Oc3ccc(N4C[C@H](OC)C[C@@H]4CC(=O)O)cc3)CC2)c(F)cn1")
840

Here is the next item to consider.
// query Requested read-out EC50, target or system human GPR40 (Homo sapiens, UniProt O14842), entry COc1ccc(F)c(N2CCC(Oc3ccc(N4CC(F)(F)C[C@@H]4CC(=O)O)cc3)C(C)C2)c1 (single isomer, unassigned) [Example 53, Isomer 1, HCl]
// result 410
